# STUDY_SYSTEM: Active JNK1β1 (UniProt P45983-3 1-384, phosphorylated in the activation loop by incubation with active MKK4 and MKK7)
# PROTOCOL_DESCRIPTION: FRET or BRET
pIC50: −log10 of the molar value.
TEST_READOUT: pIC50

binder="KHKHEMTLKFG [pepATF2Hu(46–56)]" test_readout=pIC50 value_reported=3.77
binder="AVVRPGSLDLP [pepSABhu(40–350)]" test_readout=pIC50 value_reported=3.41
binder="RPKRPTTLNLF [pepJIPhu(157–167)]" test_readout=pIC50 value_reported=6.17
